System: SNB-19 CNS
Assay: NCI-60 one-dose screen, 48 h (100 = growth as untreated, 0 = no growth, -100 = all killed)
Details: 10 µM unless noted
About 83,000 compounds went through this panel and 20% of them were active in at least one assay; those are over-represented in the sample as a whole.
Doc: threshold 20% (exclusive). Items with growth beneath it return Met; others return Not met.

Take a look at these entries with their results.
O=C(COc1ccc(NC(=O)Nc2ccccc2)cc1)N=Nc1c(O)[nH]c2ccc([N+](=O)[O-])cc12
Met
COc1ccc(NC(=O)[C@H](CO)NC(=O)OC(C)(C)C)cc1C(=O)Nc1cccc(C2CC(=O)c3c(cc(OC)c(OC)c3OC)O2)c1 (some centres undefined)
Not met
COc1ccc(C(=O)/C=C/c2ccc3ccccc3c2)cc1S(N)(=O)=O
Met
NS(=O)(=O)c1ccc(CCNC(=O)CSc2ccc(-c3ccc(Br)cc3)nn2)cc1
Not met

Lab note: confirm whether the reported growth for this compound is below 20%, equality not counting. compound: `Cc1cc(N=C2NC(=O)CS2)n[nH]1`
Not met
